% Intact Protein at 10 min values, listed per item
# method-notes: SGF digest of 168 nutritive polypeptide library, intact protein by LC-MS/MS
# Type: in vitro ADME
# run-parameters: 168 nutritive polypeptide library SGF digest, LC-MS/MS spectral counts
# Procedure: The in vitro intact half-life of multiple polypeptides in a complex mixture was determined using the simulated gastric in vitro digestion described above. […] The 168 Protein Library was treated with SGF as described above and the t=0 and t=10 min samples were analyzed for intact protein by LC-MS/MS. […] The samples were then analyzed by nano LC/MS/MS using an EasynLC 1000 HPLC system interfaced to a ThermoFisher Q Exactive. […]

molecule	% Intact Protein at 10 min [%]
SEQID-00613: protein of the 168 nutritive polypeptide library (protein, Arthrospira platensis C1, protein of the 168 nutritive polypeptide library) MGLFDRIGRVVRANLNDLVNKAEDPEKILEQAVIEMQEDLIQLRQAVAQTIAQQKRSQQQYNQAQSQANQWQSRAQLALQKGDENLAREALQRKKGYLETANTLEISLRQQTEQVETLKRNLVSLESKISEAKTKKNMLKARAQAAKANEQLNNVLGGINTSSATSVFERMEEKVMIQEAKSQAAAELMGSGLEEQFRALEEGSDVDDELAAMKAQLAGAPANQPQLSPSAPTDSSTSNPEIDNELEELRRELNK	0
SEQID-00625: protein of the 168 nutritive polypeptide library (protein, Glycine max, protein of the 168 nutritive polypeptide library) MPFKRYVEIGRVAQINYGKEYGRLVVIVDVIDQNRALVDAPDMVRSQVNFKRLSLTDIKIDIKRVPKKKDLVKAMEDADVKTKWEKSSWGRKLIVRKRRASLNDFDRFKIMLAKIKKAAVVRQELAKLRKSA	0
SEQID-00546: protein of the 168 nutritive polypeptide library (protein, listed as Saccharomyces cerevisiae, source: /note="strain ATCC 204508 / S288c", protein of the 168 nutritive polypeptide library) MCSAGGIRRPIQIEEFKTAISGMSDMELAQIKTEIENSINHLQRSNARLGKYIAKLEGADDRLEADDSDDLENIDSGDLALYKDSVRENEIVLNNYNERVDALEQETVYRKTGHGKSKHEVEAKDNTNKGPDVDMDNSNVDVVTPNSIFI	0
SEQID-00617: protein of the 168 nutritive polypeptide library (protein, Arthrospira platensis NIES-39, protein of the 168 nutritive polypeptide library) MNKEQLVQETSIKAGVTKKQADAIISAICECIMDAVADGEKVTLVGFGSFEARHRKAREGRNPSTGQPMTIPATTVPAFSAGKAFKERVANESNENVA	43.9
SEQID-00507: protein of the 168 nutritive polypeptide library (protein, listed as Agaricus bisporus, source: /note="var. bisporus"; source: /note="strain H97 / ATCC MYA-4626 / FGSC 10389", protein of the 168 nutritive polypeptide library) MISFYDLTAKPPFKTVSVNSWKIRYALNFKNLPYKTLYFEFPDMAKEFSKVGIPPSSVSADGPSYTVPSLIDDSTNTRISESFTIALYLDKQYPDAPKLFPAGTEALQAAFHEEFYKVMSPTFPFFFPKAGNVLNKPSDDYFAVTRAKMFGMSMADFEPKGEARVEAWKKVKDAFDTLESWMSKTSGPFFMGETVSFADFVIGGLLNEFSMCMGENSPEWQDVLKWNNGRWATLKKKLEVYANTDQ	0
